Entry source: ChEMBL document CHEMBL3124917

test: Tmax in Sprague-Dawley rat at 1 mg/kg, po by LC-MS/MS analysis; format: ADME, organism-based; set-up: dose 1 mg/kg, route oral; conditions: in vivo
Listed next: entries and their corresponding Tmax.
observation_type: Tmax (h)

| molecule_smiles | measured_value |
| --- | --- |
| [2H]C([2H])([2H])Oc1ccc(Cc2cc([C@@H]3O[C@H](CO)[C@@H](O)[C@H](O)[C@H]3O)ccc2Cl)cc1 | 1.56 |
| COc1ccc(Cc2cc([C@@H]3O[C@H](CO)[C@@H](O)[C@H](O)[C@H]3O)ccc2Cl)cc1 | 1.75 |

---

experiment: Tmax in Sprague-Dawley rat at 3 mg/kg, po by LC-MS/MS analysis; assay type: ADME, organism-based; set-up: dose 3 mg/kg, route oral; details: in vivo

| molecule_smiles | Tmax |
| --- | --- |
| [2H]C([2H])([2H])Oc1ccc(C([2H])([2H])c2cc([C@@H]3O[C@H](CO)[C@@H](O)[C@H](O)[C@H]3O)ccc2Cl)cc1 | 45 min |

---

assay: Half life in Sprague-Dawley rat at 3 mg/kg, po by LC-MS/MS analysis; type: ADME, organism-based; design: dose 3 mg/kg, route oral; conditions: in vivo
observation_type: half-life (h)

| molecule_smiles | measured_value |
| --- | --- |
| [2H]C([2H])([2H])Oc1ccc(C([2H])([2H])c2cc([C@@H]3O[C@H](CO)[C@@H](O)[C@H](O)[C@H]3O)ccc2Cl)cc1 | 5.66 |

---

system: Rattus norvegicus; experiment: Antidiabetic activity in Sprague-Dawley rat assessed as urinary glucose excretion at 1 mg/kg, po administered 1 hr prior to glucose challenge measured after 1 to 24 hrs relative to dapagliflozin; type: functional, Urine
observation_type: Activity (mg)

| molecule_smiles | observation_type | measurement_unit | measured_value |
| --- | --- | --- | --- |
| COc1ccc(Cc2cc([C@@H]3O[C@H](CO)[C@@H](O)[C@H](O)[C@H]3O)ccc2Cl)cc1 | Activity | mg | 1890 |
| [2H]C([2H])([2H])C([2H])([2H])Oc1ccc(Cc2cc([C@@H]3O[C@H](CO)[C@@H](O)[C@H](O)[C@H]3O)ccc2Cl)cc1 | Activity | mg | 2300 |
| [2H]C([2H])(c1ccc(OCC)cc1)c1cc([C@@H]2O[C@H](CO)[C@@H](O)[C@H](O)[C@H]2O)ccc1Cl | Activity | mg | 2220 |
| [2H]C([2H])(c1ccc(OC([2H])([2H])C([2H])([2H])[2H])cc1)c1cc([C@@H]2O[C@H](CO)[C@@H](O)[C@H](O)[C@H]2O)ccc1Cl | Activity | mg | 2080 |
| [2H][C@@]1(c2ccc(Cl)c(Cc3ccc(OCC)cc3)c2)O[C@H](CO)[C@@H](O)[C@H](O)[C@H]1O | Activity | mg | 2650 |
| [2H]C([2H])(C)Oc1ccc(Cc2cc([C@@H]3O[C@H](CO)[C@@H](O)[C@H](O)[C@H]3O)ccc2Cl)cc1 | Activity | mg | 2430 |
| [2H]C([2H])([2H])Oc1ccc(C([2H])([2H])c2cc([C@]3([2H])O[C@H](CO)[C@@H](O)[C@H](O)[C@H]3O)ccc2Cl)cc1 | Activity | mg | 1650 |
| [2H]C([2H])([2H])Oc1ccc(C([2H])([2H])c2cc([C@@H]3O[C@H](CO)[C@@H](O)[C@H](O)[C@H]3O)ccc2Cl)cc1 | Activity | mg | 2100 |
| [2H]C([2H])([2H])Oc1ccc(Cc2cc([C@@H]3O[C@H](CO)[C@@H](O)[C@H](O)[C@H]3O)ccc2Cl)cc1 | Activity | mg | 2230 |

---

Listed next: entries and their corresponding Activity.
test system: Rattus norvegicus; assay: Antidiabetic activity in Sprague-Dawley rat assessed as urinary glucose excretion at 1 mg/kg, po administered 1 hr prior to glucose challenge measured after 1 to 4 hrs relative to dapagliflozin; type: functional, Urine

| molecule_smiles | Activity |
| --- | --- |
| [2H]C([2H])([2H])Oc1ccc(C([2H])([2H])c2cc([C@]3([2H])O[C@H](CO)[C@@H](O)[C@H](O)[C@H]3O)ccc2Cl)cc1 | 166 mg |
| [2H]C([2H])(c1ccc(OC([2H])([2H])C([2H])([2H])[2H])cc1)c1cc([C@@H]2O[C@H](CO)[C@@H](O)[C@H](O)[C@H]2O)ccc1Cl | 137 mg |
| [2H]C([2H])([2H])Oc1ccc(Cc2cc([C@@H]3O[C@H](CO)[C@@H](O)[C@H](O)[C@H]3O)ccc2Cl)cc1 | 251 mg |
